# System name: NMDA receptors
# Experiment description: Radioligand binding at native NMDA receptors (rat synaptosomes)
# Test settings: native iGluRs
Measured quantity: Ki

[[record]]
molecule = "O=C(O)c1ccc([C@H]2CCN[C@@H]2C(=O)O)cc1 [Analog 2]"
meas_value = "8.5 µM"


---

# System name: AMPA receptors
# Experiment description: Radioligand binding at native AMPA receptors (rat synaptosomes)
# Test settings: native iGluRs
Measured quantity: IC50

[[record]]
mol_smiles = "O=C(O)c1ccc([C@H]2CCN[C@@H]2C(=O)O)cc1"
meas_value = "> 100 µM"

